TEST SUMMARY: Examination of solubility, visually and by microscopy
Type: physicochemical
ASSAY CONDITIONS: DMSO, organic solvent or mixture; concentration 1 μg/ml
Excerpt: The compound synthesized in Example 1 was examined for its solubility, visually as well as by microscopy.
REPORTED PROPERTY: solubility

Which solubility is listed for COC(=O)[C@H](CC(C)C)NC(=O)[C@H](CCSC)NC(=O)[C@@H](C[C@@H](O)[C@H](CC(C)C)NC(=O)OC(C)(C)C)C(C)C ?
> 1 µg/mL

====

TEST SUMMARY: Examination of solubility, visually and by microscopy
Assay type: physicochemical
ASSAY CONDITIONS: phosphate buffer, pH 7, aqueous buffer, Phosphate buffer (pH 7.0); concentration 100 μg/ml
REPORTED PROPERTY: solubility

Which solubility is listed for COC(=O)[C@H](CC(C)C)NC(=O)[C@H](CCSC)NC(=O)[C@@H](C[C@@H](O)[C@H](CC(C)C)NC(=O)OC(C)(C)C)C(C)C ?
< 100 µg/mL
